tested on: M14; test: NCI tumour cell line growth inhibition, 48 h
Calls of active or inactive are those of the source. Cut-off read from the data, not from the text of the source: active = GI50 up to about 1.1 µM and inactive = higher.
Form field: GI50 (one value per entry).

Give GI50 for this entry on M14: Cc1cccc(C)c1Nc1nc(C)c(C(=O)CC(=O)C(=O)Nc2c(C(C)C)cccc2C(C)C)s1 > 100 µM (inactive)

Retrieve GI50 on M14; query COc1ccc(/C=C/C(=O)c2cc(OC)cc(OC)c2)cc1 2.45 µM (inactive)

Please indicate recorded GI50 of c1ccc2c(CNCCCCCCCCNCc3cccc4ccccc34)cccc2c1 measured with M14. 1.75 µM (inactive)

New cases:
For M14, give the measured GI50 of the entry OC(CCNCc1ccccc1)c1ccc2ccccc2c1 (stereo unspecified) 36.1 µM (inactive)

Determine reported GI50 for COC(=O)c1ccccc1C1CN=NC12Cc1ccc(C)c(C)c1C2=O (stereo unspecified) ; test system: M14. 62.7 µM (inactive)

// output GI50; input CCSc1n/c(=C\c2ccc(N(C)C)cc2)c2nnnn12 ; system M14 > 100 µM (inactive)

====

test system: RXF 393; assay: NCI tumour cell line growth inhibition, 48 h
The source made the active and inactive calls. Cut-off read from the data, not from the text of the source: active = GI50 up to about 1.1 µM and inactive = higher.
Measured GI50 accompanies every entry in the list below.

Answered examples (3):
Check the records and state GI50 for CCOC(=O)C=C1CCN(C(=O)c2ccccc2)CC1 > 100 µM (inactive)

Answer with reported GI50 of CC1C(c2ccccc2)NC(c2ccccc2)CC1(N)C#N (stereo not given) > 100 µM (inactive)

Specify GI50 for CC(C)(C)c1ccc2c(c1)C(O)(c1ccccc1)c1cc(C(C)(C)C)ccc1C2(O)C(F)(F)F (stereo not given) and stop. 1.82 µM (inactive)

***
Determine its reported GI50: CC(=O)c1c2c(cc3c1CC1(C3)Cc3ccc4c(c3C1=O)CCC4)CCC2 (stereo not given) 9.64 µM (inactive)

Report measured GI50; entry is CC(C)(C)C1=CC(=C2C=Cc3ccccc3O2)C=C(C(C)(C)C)C1=O 2.25 µM (inactive)

Complete the entry with GI50 for COc1nc(/C=N/NC(N)=S)nc(OC)n1 > 100 µM (inactive)

====

Collected GI50 values appear next to each entry.
tested on: CAKI-1; assay: NCI tumour cell line growth inhibition, 48 h
Activity calls are given as the source filed them. Cut-off read from the data, not from the text of the source: active = GI50 up to about 1.1 µM and inactive = higher.

// worked examples, GI50 included
Look up and state reported GI50 for CCOC(=O)C1=C(C)NC(=O)N([N+](=O)[O-])C1c1ccccc1C(F)(F)F (configuration not stated) 23.1 µM (inactive)

Specify reported GI50 for the molecule shown: CC(=O)Nc1nc(NC(C)=O)c2nc(CO)[nH]c2n1 > 100 µM (inactive)

In one line, give reported GI50 of the entry COc1ccc(C2CC(=O)c3c(O)cc(O)cc3O2)cc1O (configuration not stated) . > 100 µM (inactive)

Please report the measured GI50 for Cc1ccc(S(=O)(=O)Nc2nc3ccccc3c(=O)n2C2CCCCC2)cc1 81.3 µM (inactive)

Consider the molecule Nc1nnc2c(-c3ccccc3)n[nH]c2n1 and give its recorded GI50. 17 µM (inactive)

---
Given the molecule C=C(C)C1CC[C@@](C)(O)[C@H](C#N)C1 (some centres not stated) , write its reported GI50. > 100 µM (inactive)

Quick one: give measured GI50 for CC(=O)OC1CCn2nnc(CO[Si](C)(C)C(C)(C)C)c21 (configuration not stated) > 100 µM (inactive)
